Each entry below carries its measured IC50, system: Acetylcholinesterase (Electrophorus electricus, UniProt O42275).
Sequence (O42275 whole entry): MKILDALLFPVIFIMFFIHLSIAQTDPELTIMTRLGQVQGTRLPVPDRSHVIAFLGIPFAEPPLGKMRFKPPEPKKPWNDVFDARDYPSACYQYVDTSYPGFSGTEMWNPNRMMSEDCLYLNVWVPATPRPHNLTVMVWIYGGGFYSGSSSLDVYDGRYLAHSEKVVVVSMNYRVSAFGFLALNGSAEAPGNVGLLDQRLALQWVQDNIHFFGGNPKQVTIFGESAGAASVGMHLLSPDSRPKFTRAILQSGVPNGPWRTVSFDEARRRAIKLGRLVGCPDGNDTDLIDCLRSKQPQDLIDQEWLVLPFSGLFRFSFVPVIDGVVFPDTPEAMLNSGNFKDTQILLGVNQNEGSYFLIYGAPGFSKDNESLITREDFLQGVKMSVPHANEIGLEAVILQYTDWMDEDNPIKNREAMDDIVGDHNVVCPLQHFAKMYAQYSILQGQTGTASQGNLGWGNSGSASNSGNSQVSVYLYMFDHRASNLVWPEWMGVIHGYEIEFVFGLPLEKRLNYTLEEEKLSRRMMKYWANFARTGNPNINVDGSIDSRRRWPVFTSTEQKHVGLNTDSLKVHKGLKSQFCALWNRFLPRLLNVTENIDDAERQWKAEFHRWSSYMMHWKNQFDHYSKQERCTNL
MEASURED ENDPOINT: IC50 (µM)

                                 smiles_code  measured_endpoint  value_comparator  value_measured
 0       c1ccc2oc(-c3ccc(CN4CCSCC4)cc3)nc2c1               IC50                 =            2.55
 1    CN(Cc1ccccc1)Cc1ccc(-c2nc3ccccc3o2)cc1               IC50                 =            30.8
 2     c1ccc(CNCc2ccc(-c3nc4ccccc4o3)cc2)cc1               IC50                 =            25.4
 3      CN1CCN(Cc2ccc(-c3nc4ccccc4o3)cc2)CC1               IC50                 =            62.2
 4  c1ccc(CN2CCN(Cc3ccc(-c4nc5ccccc5o4)cc3)CC2)cc1               IC50                 >             100
 5     CCN1CCN(Cc2ccc(-c3nc4ccccc4o3)cc2)CC1               IC50                 =            38.2
 6  c1ccc(CN2CCC(NCc3ccc(-c4nc5ccccc5o4)cc3)CC2)cc1               IC50                 =            7.76
 7  c1ccc(CC2CCN(Cc3ccc(-c4nc5ccccc5o4)cc3)CC2)cc1               IC50                 >             100
 8   CCN(Cc1ccccc1)Cc1ccc(-c2nc3ccccc3o2)cc1               IC50                 =            56.4
 9        c1ccc2oc(-c3ccc(CN4CCCC4)cc3)nc2c1               IC50                 =            1.35
10       c1ccc2oc(-c3ccc(CN4CCNCC4)cc3)nc2c1               IC50                 =            3.45
